Data provenance: patent US20260250337A1

- assay procedure: Resistance to degradation in fetal bovine serum
- Format: in vitro ADME
- test context: bovine, fetal bovine serum, 25% in water, fetal bovine serum 25% in water, 37° C., 30 min; read-out: remaining peptide, 30 min
No end group written: not given here.
endpoint: remaining at 0.5 h

# annotated cases, reported remaining at 0.5 h shown
substance	remaining at 0.5 h
ILGAILNVLKSLG-NH2 [PV]	~90%
H-GLLKRIKTLL-NH2 [Anoplin, reference compound]	~20%
SLLSLIRKLIT-NH2 [Decoralin, reference compound]	~70%
FLGTLWGGAKGVF-NH2 [VP]	22%

Please report remaining at 0.5 h for every entry that follows.
1. GLGALLNVIKSGL-NH2 [AV]
2. FLGALWNVAKSVF-NH2 [VmCT1, reference compound]
3. SLGALINVLKSGG-NH2 [DV]
4. FLGSLWRKAGTVF-NH2 [VD]

A:
1. ~40%
2. ~20%
3. ~50%
4. ~10%
